System: Fer (mouse)
Experiment: phosphorylation enrichment, bacterial display (enrichment ratio); higher = better substrate or ligand; peptides without Tyr show the background
Grouping key: phosphorylation enrichment. Bins: lo = under 0.4, mid = from 0.4 up to 0.5, hi = 0.5 and over

Example results:
[
  {
    "PRIMARY SEQUENCE": "FFIMMYTGSSV [DNAJC13_Y1131_N1135S]",
    "CLASS ASSIGNMENT": "mid"
  },
  {
    "PRIMARY SEQUENCE": "YEDTLYTVLHR [UNC13D_Y61_A59T]",
    "CLASS ASSIGNMENT": "hi"
  },
  {
    "PRIMARY SEQUENCE": "SPRDTYSDRIG [CTPS1_Y567_S571I]",
    "CLASS ASSIGNMENT": "lo"
  },
  {
    "PRIMARY SEQUENCE": "ALAHKYHGGGG [HBB_Y146]",
    "CLASS ASSIGNMENT": "lo"
  },
  {
    "PRIMARY SEQUENCE": "QRPGLYDRPGA [HNRNPH2_Y210_P209L]",
    "CLASS ASSIGNMENT": "hi"
  },
  {
    "PRIMARY SEQUENCE": "EDDIIYTQDFT [STK11_Y362]",
    "CLASS ASSIGNMENT": "hi"
  },
  {
    "PRIMARY SEQUENCE": "AKQVGYENAGT [PC_Y304]",
    "CLASS ASSIGNMENT": "mid"
  },
  {
    "PRIMARY SEQUENCE": "CTTIHYNYMGN [TP53_Y234_C238G]",
    "CLASS ASSIGNMENT": "hi"
  }
]

Problem: Category lookup for the sequence HVPEEYKPKQG [SAXO2_Y37]
Result: lo

Problem: Category lookup for the sequence VDSLRYIYPKL [EIF2B3_Y92_A87V]
Result: hi

Problem: Category lookup for the sequence HTLIKYTDGDQ [PUS7L_Y94]
Result: hi

Problem: Category lookup for the sequence CTHDLYMIMRE [FGFR3_Y724]
Result: hi

Problem: Category lookup for the sequence FADGVYLALEE [DUOX2_Y70_Q71L_YF]
Result: hi

Problem: Category lookup for the sequence SSNTEYLSASD [INSR_Y999_P997T]
Result: mid

Problem: Category lookup for the sequence CTTIHYNHMCN [TP53_Y234_Y236H]
Result: lo

Problem: Category lookup for the sequence STAPSYGNPSS [CD19_Y378_G373S]
Result: lo

----------
Molecular target: Jak2 (UniProt O60674)
Sequence (O60674 whole entry, looked up): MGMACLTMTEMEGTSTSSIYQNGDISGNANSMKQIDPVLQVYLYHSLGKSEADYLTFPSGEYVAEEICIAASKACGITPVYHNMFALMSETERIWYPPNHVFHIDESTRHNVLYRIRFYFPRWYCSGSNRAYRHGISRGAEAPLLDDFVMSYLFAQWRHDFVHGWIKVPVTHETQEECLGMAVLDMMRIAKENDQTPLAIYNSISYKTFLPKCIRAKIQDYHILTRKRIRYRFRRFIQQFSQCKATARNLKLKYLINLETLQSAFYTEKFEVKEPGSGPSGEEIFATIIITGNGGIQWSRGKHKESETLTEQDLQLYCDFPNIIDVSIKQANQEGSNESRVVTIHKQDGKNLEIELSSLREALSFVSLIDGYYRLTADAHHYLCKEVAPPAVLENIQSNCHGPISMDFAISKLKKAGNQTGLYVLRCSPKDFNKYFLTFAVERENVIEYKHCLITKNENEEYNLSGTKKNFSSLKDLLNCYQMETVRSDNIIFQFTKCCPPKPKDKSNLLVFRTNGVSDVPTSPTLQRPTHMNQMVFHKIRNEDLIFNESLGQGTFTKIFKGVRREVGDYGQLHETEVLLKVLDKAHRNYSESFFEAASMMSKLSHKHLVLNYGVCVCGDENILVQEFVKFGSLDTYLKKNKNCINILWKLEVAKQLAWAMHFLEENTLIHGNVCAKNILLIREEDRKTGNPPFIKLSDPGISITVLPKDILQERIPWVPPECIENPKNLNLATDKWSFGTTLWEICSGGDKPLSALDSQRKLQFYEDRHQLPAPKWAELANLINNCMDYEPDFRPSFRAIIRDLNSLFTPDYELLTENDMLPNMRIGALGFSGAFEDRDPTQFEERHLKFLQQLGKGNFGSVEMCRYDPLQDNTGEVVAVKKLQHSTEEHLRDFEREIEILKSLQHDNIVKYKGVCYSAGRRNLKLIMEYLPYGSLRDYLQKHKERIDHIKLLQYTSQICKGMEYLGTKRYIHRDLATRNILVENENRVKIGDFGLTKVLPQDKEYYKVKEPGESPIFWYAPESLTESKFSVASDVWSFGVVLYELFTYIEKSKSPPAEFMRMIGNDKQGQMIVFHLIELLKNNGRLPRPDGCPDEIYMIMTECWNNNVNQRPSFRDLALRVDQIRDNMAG
Experiment: phosphorylation enrichment, bacterial display (enrichment ratio); higher = better substrate or ligand; peptides without Tyr show the background
PROPERTY NAME: phosphorylation enrichment
One number for each entry.

[
  {
    "PRIMARY SEQUENCE": "MGHVNYGAYIN [GLB1_Y485_R482H]",
    "phosphorylation enrichment": 0.672
  }
]

Dear reader, for each entry below, please note its phosphorylation enrichment.
1. PLDAEYFTLQI [TP53_Y327_G325A]
2. GIVKAYYVRAR [AIPL1_Y267]

Result:
1. 3.1
2. 0.706

Dear reader, for each entry below, please note its phosphorylation enrichment.
1. VEDQFYCVDCF [FHL1_Y208_YF]
2. TETGRYEILTE
3. MEVGQYIFVKC [CYBB_Y324]

Result:
1. 1.35
2. 0.658
3. 1.53

----------
Target: EPHB2 (UniProt P29323)
Sequence (P29323 whole entry, looked up): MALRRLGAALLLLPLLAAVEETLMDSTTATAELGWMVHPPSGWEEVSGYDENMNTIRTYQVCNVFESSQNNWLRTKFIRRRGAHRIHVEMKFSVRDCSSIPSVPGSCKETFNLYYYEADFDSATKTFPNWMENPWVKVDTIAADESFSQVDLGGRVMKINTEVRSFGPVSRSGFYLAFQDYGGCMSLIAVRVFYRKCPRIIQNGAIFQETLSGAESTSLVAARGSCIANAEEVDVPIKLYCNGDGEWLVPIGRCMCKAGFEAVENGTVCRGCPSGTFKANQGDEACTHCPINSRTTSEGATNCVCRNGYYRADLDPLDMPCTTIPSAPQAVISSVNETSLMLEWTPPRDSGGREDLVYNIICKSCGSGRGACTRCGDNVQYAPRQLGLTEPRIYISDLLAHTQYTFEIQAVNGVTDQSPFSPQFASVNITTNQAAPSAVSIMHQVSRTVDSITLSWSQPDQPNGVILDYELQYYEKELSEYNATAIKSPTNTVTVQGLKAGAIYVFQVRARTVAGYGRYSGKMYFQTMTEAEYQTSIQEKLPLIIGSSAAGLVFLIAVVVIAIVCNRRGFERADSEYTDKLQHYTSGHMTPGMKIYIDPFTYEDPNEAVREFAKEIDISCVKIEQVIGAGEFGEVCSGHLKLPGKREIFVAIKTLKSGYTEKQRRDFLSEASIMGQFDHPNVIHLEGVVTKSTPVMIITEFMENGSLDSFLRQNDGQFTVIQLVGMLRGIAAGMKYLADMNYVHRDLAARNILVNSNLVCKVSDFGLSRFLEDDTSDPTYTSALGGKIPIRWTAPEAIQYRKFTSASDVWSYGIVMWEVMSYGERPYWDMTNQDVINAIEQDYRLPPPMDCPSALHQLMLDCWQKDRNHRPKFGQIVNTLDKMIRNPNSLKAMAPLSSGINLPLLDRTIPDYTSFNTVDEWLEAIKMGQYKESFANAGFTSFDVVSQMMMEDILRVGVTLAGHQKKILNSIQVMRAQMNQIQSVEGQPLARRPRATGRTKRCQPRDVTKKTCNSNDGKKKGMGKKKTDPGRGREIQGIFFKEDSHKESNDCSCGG
Test: phosphorylation enrichment, bacterial display (enrichment ratio); higher = better substrate or ligand; peptides without Tyr show the background
PROPERTY NAME: phosphorylation enrichment

Example results:
[
  {
    "PRIMARY SEQUENCE": "RFLERYIFNRE [HLA-DPB1_Y57_YF]",
    "TEST TARGET": "EPHB2 (UniProt P29323)",
    "PROPERTY NAME": "phosphorylation enrichment",
    "RESULT": 0.363
  },
  {
    "PRIMARY SEQUENCE": "DQVEQCKKELE [LMNA_Y259_Y259C]",
    "TEST TARGET": "EPHB2 (UniProt P29323)",
    "PROPERTY NAME": "phosphorylation enrichment",
    "RESULT": 0.625
  }
]

Dear reader, for each entry below, please note its phosphorylation enrichment.
1. NTFEKYWLFFQ [GATM_Y103_P105L_YF]
2. LDYNEYFRYLN [HPRT1_Y198_D201Y]

Result:
1. 0.682
2. 1.39

Dear reader, for each entry below, please note its phosphorylation enrichment.
1. RGESFYQDRMN [RARS_Y338]
2. LFDHIYTTQSD [RET_Y928]
3. SCTFTYLLGDR [ETHE1_Y38]
4. MEVGQYIFVKC [CYBB_Y324]
5. SIIKDYFHRGT [GATM_Y203_A208T]
6. TFGQVYKGPHV [TNIK_Y40_R43P_YF]
7. SDGHEYIYVDP [PDGFRB_Y579]

Result:
[0.392, 2, 0.56, 0.723, 0.604, 0.454, 1.72]

Dear reader, for each entry below, please note its phosphorylation enrichment.
1. SQQTYCRVSNM [ABCD1_Y181_Y181C]
2. ADYYDYGRGLS [KHDRBS3_Y304_H306R]
3. HELFVYKCDEN [DOCK3_Y548_YF]

Result:
1: 1.98; 2: 17.4; 3: 1.13

----------
Biological target: MERTK (UniProt Q12866)
Sequence (Q12866 whole entry, looked up): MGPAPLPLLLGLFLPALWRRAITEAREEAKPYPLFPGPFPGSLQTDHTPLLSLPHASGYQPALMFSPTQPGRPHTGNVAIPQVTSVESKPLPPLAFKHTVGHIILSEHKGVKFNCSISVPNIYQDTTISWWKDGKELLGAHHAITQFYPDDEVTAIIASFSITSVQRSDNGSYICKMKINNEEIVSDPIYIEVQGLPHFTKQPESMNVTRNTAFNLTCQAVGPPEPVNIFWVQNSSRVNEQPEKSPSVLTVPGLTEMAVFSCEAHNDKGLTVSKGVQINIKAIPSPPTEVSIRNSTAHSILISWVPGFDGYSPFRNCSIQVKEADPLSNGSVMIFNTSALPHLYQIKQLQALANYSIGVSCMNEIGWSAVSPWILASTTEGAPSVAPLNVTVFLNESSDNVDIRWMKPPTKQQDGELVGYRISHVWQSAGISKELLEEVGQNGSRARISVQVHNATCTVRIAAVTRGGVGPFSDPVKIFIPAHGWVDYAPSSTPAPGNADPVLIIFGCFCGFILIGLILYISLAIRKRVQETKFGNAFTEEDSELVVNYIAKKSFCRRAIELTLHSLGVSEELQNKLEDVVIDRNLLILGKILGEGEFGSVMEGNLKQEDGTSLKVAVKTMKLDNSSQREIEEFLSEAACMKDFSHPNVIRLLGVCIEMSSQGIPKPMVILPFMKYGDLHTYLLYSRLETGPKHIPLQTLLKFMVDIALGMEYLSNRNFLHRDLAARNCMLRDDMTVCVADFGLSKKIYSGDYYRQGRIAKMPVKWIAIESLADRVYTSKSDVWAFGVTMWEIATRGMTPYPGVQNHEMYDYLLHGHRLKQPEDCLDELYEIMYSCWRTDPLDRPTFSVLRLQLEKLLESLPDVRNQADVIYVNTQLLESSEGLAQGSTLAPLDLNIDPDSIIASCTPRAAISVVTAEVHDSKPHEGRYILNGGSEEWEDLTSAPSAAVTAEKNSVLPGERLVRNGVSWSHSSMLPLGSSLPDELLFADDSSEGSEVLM
Experiment: phosphorylation enrichment, bacterial display (enrichment ratio); higher = better substrate or ligand; peptides without Tyr show the background
PROPERTY NAME: phosphorylation enrichment
Answers are plain numbers.

Example results:
[
  {
    "PRIMARY SEQUENCE": "HILRVYSGVLP [PCNX4_Y999_G1000S]",
    "phosphorylation enrichment": 0.576
  },
  {
    "PRIMARY SEQUENCE": "RSSGSYGGGGQ [HNRNPA1_Y341_P340S]",
    "phosphorylation enrichment": 0.415
  },
  {
    "PRIMARY SEQUENCE": "TLGPFYPSLLF [CRYAA_Y18_R21L]",
    "phosphorylation enrichment": 0.452
  },
  {
    "PRIMARY SEQUENCE": "EQFELHCEMGS [CBL_Y371_Y371H_YF]",
    "phosphorylation enrichment": 0.526
  },
  {
    "PRIMARY SEQUENCE": "RREGVYRNNID [PTEN_Y46_L42R]",
    "phosphorylation enrichment": 0.752
  },
  {
    "PRIMARY SEQUENCE": "HKDNNYISMWF [PAPOLG_Y432_V433I]",
    "phosphorylation enrichment": 1.33
  }
]

Dear reader, for each entry below, please note its phosphorylation enrichment.
1. AKQVGYENAGT [PC_Y304]
2. EVDETYVPKKF [ALB_Y521_E525K]
3. FADTAYNYRHG [PAH_Y166_I164T]
4. ILKPDYQPLAV [HYDIN_Y1072_I1077V]
5. NTYEKYLGEEY [TF_Y669]
6. KFMVGYEMLAQ [GALT_Y339]
7. RALLNYIASKY [GSTA3_Y74_I71L]
8. GSPPPYRRRKR [MBD1_Y403]

Result:
1: 0.432; 2: 0.404; 3: 0.35; 4: 0.448; 5: 0.382; 6: 0.343; 7: 0.509; 8: 0.593

----------
Target: SHP2-C SH2;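 note: peptide library displayed on the E. coli surface as eCPX fusions, selected cells deep-sequenced, score is each peptide's frequency after selection divided by its frequency in the input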
Test: SH2 binding enrichment of the phosphorylated peptide, bacterial display (enrichment ratio); higher = better substrate or ligand; peptides without Tyr show the background
We use 0.8 as the dividing line for SH2 binding enrichment: on or above the line is yes (1), below is no (0).

Example results:
[
  {
    "PRIMARY SEQUENCE": "SQQTYCRVSNM [ABCD1_Y181_Y181C]",
    "TEST TARGET": "SHP2-C SH2",
    "CLASS ASSIGNMENT": "no (0)"
  },
  {
    "PRIMARY SEQUENCE": "RASSSYRETPS [SORBS1_Y79]",
    "TEST TARGET": "SHP2-C SH2",
    "CLASS ASSIGNMENT": "yes (1)"
  },
  {
    "PRIMARY SEQUENCE": "GREAEYSDKHG [EPHB4_Y574]",
    "TEST TARGET": "SHP2-C SH2",
    "CLASS ASSIGNMENT": "no (0)"
  }
]

Problem: Is the recorded value of SH2 binding enrichment equal to or greater than 0.8 for this sequence? SILTVYSKDNY [PANK2_Y400_A398T]
Result: no (0)

Problem: Is the recorded value of SH2 binding enrichment equal to or greater than 0.8 for this sequence? KDYETYQSFQN [CTNND2_Y1157_P1159S]
Result: no (0)

Problem: Is the recorded value of SH2 binding enrichment equal to or greater than 0.8 for this sequence? KERNQYGGVMV [MMP21_Y347_E349G]
Result: yes (1)

Problem: Is the recorded value of SH2 binding enrichment equal to or greater than 0.8 for this sequence? PRLMLYNPTTY [EGFR_Y270_P266R]
Result: yes (1)

Problem: Is the recorded value of SH2 binding enrichment equal to or greater than 0.8 for this sequence? EKKDVYKTGEQ [CFH_Y1008_A1010T]
Result: no (0)

Problem: Is the recorded value of SH2 binding enrichment equal to or greater than 0.8 for this sequence? KPGVNYYFRVS
Result: yes (1)

Problem: Is the recorded value of SH2 binding enrichment equal to or greater than 0.8 for this sequence? GKTQQYDCKWF [BCR_Y751_YF]
Result: no (0)

Problem: Is the recorded value of SH2 binding enrichment equal to or greater than 0.8 for this sequence? SPQAHYRLSAF [ADAMTS9_Y100_S96P]
Result: no (0)

Problem: Is the recorded value of SH2 binding enrichment equal to or greater than 0.8 for this sequence? AKNKDYMSIIR [GNE_Y197]
Result: yes (1)

Problem: Is the recorded value of SH2 binding enrichment equal to or greater than 0.8 for this sequence? FSNVLYRPRGA [TMIGD2_Y197_YF]
Result: no (0)
